# Test system: PIKFYVE;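 note: KINOMEscan kinase panel screen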
# Measurement context: concentration: 1 μM, replicates: in singlicate; n = 1

>  <Compound>
CC(=O)Nc1nc2cnc(Nc3cc(NC(=O)c4cccc(C5(C#N)CC5)c4Cl)ccc3C)nc2s1

>  <Units label>
%

>  <%Inh>
0

$$$$
>  <Compound>
O=C(NC1CCN(c2ccnc(Nc3ccc(F)cc3)n2)C1)c1cc2ccccc2s1 (centres unmarked) [GSK1379716]

>  <Units label>
%

>  <%Inh>
4

$$$$
>  <Compound>
O=C(Nc1n[nH]c2nc(-c3ccc(O)cc3)ccc12)C1CC1 [SB-710363]

>  <Units label>
%

>  <%Inh>
0

$$$$
>  <Compound>
Cl.Cl.NCC(C(=O)Nc1cc(Br)c(-c2ccnc3[nH]ccc23)s1)c1ccccc1 (centres unmarked) [GSK1269851]

>  <Units label>
%

>  <%Inh>
0

$$$$
>  <Compound>
Cn1cc(-c2[nH]c3cc(NC(=O)[C@H](N)C4CCCCC4)cc4c3c2C=NNC4=O)cn1

>  <Units label>
%

>  <%Inh>
1

$$$$
>  <Compound>
Cc1ccc(C(=O)Nc2ccc(Nc3ccnc4cc(-c5nccs5)ccc34)cc2O)cc1.Cl [GW494702]

>  <Units label>
%

>  <%Inh>
0

$$$$
>  <Compound>
CN(c1ccc(NC(=O)Nc2cc(C(F)(F)F)ccc2F)cc1)c1ccnc(Nc2ccc(S(N)(=O)=O)cc2)n1 [GW809893]

>  <Units label>
%

>  <%Inh>
0

$$$$
>  <Compound>
COC(=O)Nc1nc2cc(Oc3ccc(NC(=O)Nc4cc(C(F)(F)F)ccc4F)cn3)ccc2[nH]1.Cl.Cl [GW681170]

>  <Units label>
%

>  <%Inh>
0

$$$$
